Recorded IC90 by entry
Tested on: human hepatoma cell line ET
measurement_conditions: read-out: Cytotoxicity IC90; Example 2; ET cells, 72 h, colorimetric assay

**Query** Please indicate IC90 recorded for CC=CCC(C)C(O)C1C(=O)NC(CC)C(=O)N(C)C(OC)C(=O)N(C)C(CC(C)(C)O)C(=O)NC(C(C)C)C(=O)N(C)C(CC(C)C)C(=O)NC(C)C(=O)NC(C)C(=O)N(C)C(CC(C)C)C(=O)N(C)C(CC(C)C)C(=O)N(C)C(C(C)C)C(=O)N1C (centres unmarked)
**Result** > 2 µM

Moving on to another compound below.
**Query** Please indicate IC90 recorded for CC=CCC(C)C(O)C1C(=O)NC(CC)C(=O)N(C)C(SCCN(C)C)C(=O)N(C)C(CC(C)(C)O)C(=O)NC(C(C)C)C(=O)N(C)C(CC(C)C)C(=O)NC(C)C(=O)NC(C)C(=O)N(C)C(CC(C)C)C(=O)N(C)C(CC(C)C)C(=O)N(C)C(C(C)C)C(=O)N1C (centres unmarked)
**Result** > 20 µM
